These data points were gathered from the RNAGym collection of RNA variant scans (doi:10.7554/elife.80360).

B1: CPEB3 Ribozyme (parent)
chain: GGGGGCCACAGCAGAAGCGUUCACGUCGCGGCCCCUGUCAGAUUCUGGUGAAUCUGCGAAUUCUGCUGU

variants of: B1; assay: self-cleavage, relative activity (ratio to wild type); higher = more cleavage; co-transcriptional
Form field: self-cleavage (one value per entry).
Keep the answer to the number alone.

[[record]]
mutation_name = "C9U A16G"
value = 0.956

[[record]]
mutation_name = "C27U C29U"
value = 0.189

[[record]]
mutation_name = "C35G U36C"
value = 0.36

[[record]]
mutation_name = "A59G U64G"
value = 0.835

[[record]]
mutation_name = "G4C G30C"
value = 0.0792

[[record]]
mutation_name = "G1C C54A"
value = 0.272

[[record]]
mutation_name = "C45G C66A"
value = 0.767

[[record]]
mutation_name = "G11A C34A"
value = 0.715


Input U49C U55G , output reported self-cleavage.
0.816

Input G1A A51G , output reported self-cleavage.
0.0779

Input G1A G11C , output reported self-cleavage.
0.0395
